Some compounds, each annotated with its measured Kochia plant response rating (0 to 100 scale).
test system: kochia (Bassia scoparia); assay: Test A postemergence application, visual injury rating 0-100; assay type: in vivo; conditions: Postemergence, 125 g ai/ha, 10 days; 0 is no effect, 100 is complete control
API note: the answer field is a bare number with no unit suffix.

INSERT INTO measurements (compound, system_name, measured_result) VALUES
  ('CC1(C(=O)NC2CC=C(C(=O)NS(=O)(=O)C3CC3)C2)CN(c2cc(Cl)cc(Cl)c2)C(=O)O1 (stereo not shown)', 'kochia (Bassia scoparia)', 80),
  ('CC(C)COC(=O)C1C=CC(NC(=O)C2(C)CN(c3cc(F)cc(F)c3)C(=O)O2)C1 (stereo not shown)', 'kochia (Bassia scoparia)', 80),
  ('COC(=O)C1CC(NC(=O)C2(C)CN(c3cc(F)cc(F)c3)C(=O)O2)CO1 (stereo not shown)', 'kochia (Bassia scoparia)', 40);

Here is another compound to look at.
Give kochia (Bassia scoparia) Kochia plant response rating (0 to 100 scale) for COC(=O)C1CCC(NC(=O)C2(C)CN(c3cc(F)cc(F)c3)C(=O)O2)C1 (stereo not shown) 70

* * *

Below, each entry is listed with its recorded Barnyardgrass plant response rating.
test system: barnyardgrass (Echinochloa crus-galli); experiment: Test A preemergence soil spray, visual injury rating 0-100; assay type: in vivo; conditions: 16 g ai/ha, 0 to 100 scale, 10 days
Write no unit; give the number alone.

Solved entries:
INSERT INTO results (molecule, measured_result) VALUES
  ('COC(=O)C1CC(NC(=O)C2(C)CN(c3cc(F)cc(F)c3)C(=O)O2)C1 (stereo not shown) [Compound 130]', 0),
  ('CC(C)COC(=O)C1=CCC(NC(=O)C2(C)CN(c3cc(Cl)cc(Cl)c3)C(=O)O2)C1 (stereo not shown) [Compound 155]', 0),
  ('COC(=O)C1=CCC(NC(=O)C2(C)CN(c3cc(F)cc(Cl)c3)C(=O)O2)C1 (stereo not shown) [Compound 140]', 50);

I'm curious: which Barnyardgrass plant response rating was measured for COC(=O)C1C=CC(NC(=O)C2(C)CN(c3cccc(OC(F)(F)F)c3)C(=O)O2)C1 (mixture of isomers) [Compound 101] tested on barnyardgrass (Echinochloa crus-galli)? 0

* * *

Measured Horseweed plant response rating (0 to 100 scale), listed per entry for reference.
system: horseweed (Erigeron canadensis); test: Test A postemergence application, visual injury rating 0-100; assay type: in vivo; settings: Postemergence, 31 g ai/ha, greenhouse 10 days; 0 no effect, 100 complete control
Hey, just send me the number, nothing else.

Worked set:
INSERT INTO assay_data (molecule, measured_result) VALUES
  ('CC1(C(=O)NC2CC=C(C(=O)OCC(F)(F)F)C2)CN(c2cc(Cl)cc(Cl)c2)C(=O)O1 (centres unmarked)', 10),
  ('CC(C)COC(=O)C1C=CC(NC(=O)C2(C)CN(c3cc(Cl)cc(Cl)c3)C(=O)O2)C1 (centres unmarked)', 40),
  ('CC(=O)COC(=O)C1C=CC(NC(=O)C2(C)CN(c3cc(Cl)cc(Cl)c3)C(=O)O2)C1 (centres unmarked)', 50);

Requested field: Horseweed plant response rating (0 to 100 scale). Item: CC1(C(=O)NC2C=CC(C(=O)NS(=O)(=O)C(C)(C)C)C2)CN(c2cc(F)cc(F)c2)C(=O)O1 (centres unmarked) 10

Param item = CCS(=O)(=O)NC(=O)C1C=CC(NC(=O)C2(C)CN(c3cc(Cl)cc(Cl)c3)C(=O)O2)C1 (centres unmarked) ; retrieve measured Horseweed plant response rating (0 to 100 scale). 20

* * *

tested on: horseweed (Erigeron canadensis); assay: Test A postemergence application, visual injury rating 0-100; format: in vivo; conditions: Postemergence, 500 g ai/ha, 10 days; 0 is no effect, 100 is complete control
Property: Horseweed plant response rating (0 to 100 scale)
// keep it numeric: no unit symbol after the value

Answered examples (4):
INSERT INTO results (compound, measured_result) VALUES
  ('CC1(C(=O)NC2C=CC(C(=O)OCCS(C)(=O)=O)C2)CN(c2cc(Cl)cc(Cl)c2)C(=O)O1 (centres unmarked) [Compound 46]', 80),
  ('CC1(C(=O)NC2C=CC(C(=O)NS(C)(=O)=O)C2)CN(c2cc(F)cc(F)c2)C(=O)O1 (centres unmarked) [Compound 30]', 80),
  ('CC1(C(=O)NC2C=CC(C(=O)OCC#N)C2)CN(c2cc(F)cc(F)c2)C(=O)O1 (centres unmarked) [Compound 35]', 90),
  ('CC1(C(=O)N[C@H]2C=C[C@@H](C(=O)O)C2)CN(c2cc(F)cc(F)c2)C(=O)O1 (some centres unmarked) [Compound 51]', 100);

Returns the measured Horseweed plant response rating (0 to 100 scale) for the input compound. Input: COC(=O)[C@H]1C[C@@H](NC(=O)C2(C)CN(c3cc(F)cc(F)c3)C(=O)O2)[C@H]2C[C@H]21 (some centres unmarked) [Compound 176] 30

* * *

system: blackgrass (Alopecurus myosuroides); experiment: Test A preemergence soil spray, visual injury rating 0-100; assay type: in vivo; details: 125 g ai/ha, 10 days, 0 = no effect, 100 = complete control
Property: Blackgrass plant response rating (0 to 100 scale)
# output: bare number, no unit

Would you please look over these solved cases?
INSERT INTO measurements (compound, measured_result) VALUES
  ('CC(C)COC(=O)C1=CCC(NC(=O)C2(C)CN(c3cc(F)cc(F)c3)C(=O)O2)C1 (centres unmarked)', 40),
  ('CCCS(=O)(=O)OC(=O)C1C=CC(NC(=O)C2(C)CN(c3cc(Cl)cc(Cl)c3)C(=O)O2)C1 (mixture of isomers)', 30),
  ('CC1(C(=O)NC2CCC(C(=O)NS(C)(=O)=O)C2)CN(c2cc(F)cc(F)c2)C(=O)O1 (centres unmarked)', 50);

Consider the compound CCS(=O)(=O)NC(=O)C1C=CC(NC(=O)C2(C)CN(c3cc(F)cc(F)c3)C(=O)O2)C1 (centres unmarked) and give its measured Blackgrass plant response rating (0 to 100 scale). 70

Find the recorded Blackgrass plant response rating (0 to 100 scale) belonging to CCS(=O)(=O)NC(=O)C1C=CC(NC(=O)C2(C)CN(c3cc(Cl)cc(Cl)c3)C(=O)O2)C1 (centres unmarked) and report it. 40

* * *

Listing: Wheat plant response rating (0 to 100 scale) of selected compounds
system: wheat (Triticum aestivum); assay: Test A postemergence application, visual injury rating 0-100; type: in vivo; details: Postemergence, 16 g ai/ha, greenhouse 10 days; 0 no effect, 100 complete control

INSERT INTO assay_data (compound, measured_result) VALUES
  ('CCOC(=O)C1=CCC(NC(=O)C2(C)CN(c3cc(F)cc(Cl)c3)C(=O)O2)C1 (stereo not shown)', 80),
  ('COC(=O)C1CC(NC(=O)C2(C)CN(c3cc(F)cc(F)c3)C(=O)O2)C1 (stereo not shown) [Compound 130]', 90),
  ('CC(C)COC(=O)C1=CCC(NC(=O)C2(C)CN(c3cc(Cl)cc(Cl)c3)C(=O)O2)C1 (stereo not shown)', 50);

Now let's try a different one.
Under wheat (Triticum aestivum): Wheat plant response rating (0 to 100 scale) value of CCOC(=O)C1=CCC(NC(=O)C2(C)CN(c3cc(Cl)cc(Cl)c3)C(=O)O2)C1 (stereo not shown) ? 0

* * *

Measured Blackgrass plant response rating (0-100) accompanies every entry in the list below.
system: blackgrass (Alopecurus myosuroides); experiment: Test A postemergence application, visual injury rating 0-100; assay type: in vivo; details: 31 g ai/ha, postemergence, 10 days, 0 = no effect, 100 = complete control
Respond using a number only.

Reference set (7 entries):
INSERT INTO assay_data (compound, property, measured_result) VALUES
  ('CCOC(=O)C1=CCC(NC(=O)C2(C)CN(c3cc(Cl)cc(Cl)c3)C(=O)O2)C1 (centres unmarked)', 'Blackgrass plant response rating (0-100)', 90),
  ('COC(=O)C1=CCC(NC(=O)C2(C)CN(c3cc(F)cc(F)c3)C(=O)O2)C1 (single isomer, unassigned)', 'Blackgrass plant response rating (0-100)', 0),
  ('CCOC(=O)COC(=O)C1C=CC(NC(=O)C2(C)CN(c3cc(F)cc(F)c3)C(=O)O2)C1 (centres unmarked)', 'Blackgrass plant response rating (0-100)', 70),
  ('CONC(=O)C1CC(NC(=O)C2(C)CN(c3cc(F)cc(F)c3)C(=O)O2)CO1 (centres unmarked)', 'Blackgrass plant response rating (0-100)', 0),
  ('CCOC(=O)C1=CCC(NC(=O)C2(C)CN(c3cc(F)cc(F)c3)C(=O)O2)C1 (centres unmarked)', 'Blackgrass plant response rating (0-100)', 70),
  ('CC1(C(=O)NC2CC=C(C(=O)O)C2)CN(c2cc(F)cc(F)c2)C(=O)O1 (centres unmarked)', 'Blackgrass plant response rating (0-100)', 40),
  ('CCOC(=O)C1CC(NC(=O)C2(C)CN(c3cc(F)cc(F)c3)C(=O)O2)CO1 (centres unmarked)', 'Blackgrass plant response rating (0-100)', 90);

Alright, here's another compound for you.
Give the reported Blackgrass plant response rating (0-100) for COC(=O)C1=CCC(NC(=O)C2(C)CN(c3cc(Cl)cc(Cl)c3)C(=O)O2)C1 (centres unmarked) (system: blackgrass (Alopecurus myosuroides)). 90

The values you see were collected from patent US20260285850A1.
